pKi values, listed per item
# system_under_test: Bovine type 1 trypsin (Bos taurus, UniProt P00760)
# Construct: purchased Sigma
# Sequence (P00760 24-246): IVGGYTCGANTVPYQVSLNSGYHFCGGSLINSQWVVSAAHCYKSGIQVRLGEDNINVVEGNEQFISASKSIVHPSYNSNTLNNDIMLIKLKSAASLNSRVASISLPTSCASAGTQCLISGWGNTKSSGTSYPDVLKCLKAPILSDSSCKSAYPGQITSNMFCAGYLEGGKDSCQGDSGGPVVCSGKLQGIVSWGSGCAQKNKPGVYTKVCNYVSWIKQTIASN
# procedure_summary: Trypsin-catalyzed hydrolysis of chromogenic substrate, Ki
# Type: biochemical
# setup_conditions: 3.2 U/ml trypsin, 0.1-0.3 mM Spectrozyme TRY; read-out: Trp Ki
Worth noting: pKi values are minus log10 of concentrations stated in mol/L.

# substance, assay_endpoint, reading
measured = [
    ("5R,15R,19S,21 AS-N-[3-(15-BENZHYDRYL-5-BENZYL-4,7,14,17,18,21-HEXAOXODOCOSAHYDRO-3a,6,13,16,20-PENTMZACYCLOPENTACYCLOEICOSEN-19-YL)PPROPYL]GUANIDINE TRIFLUOROACETIC ACID [Compound 19]", "pKi", 8.60),
    ("3S,6S,12R-N-[3-(12-BENZYL-2,5,11,14,20-PENTAOXO-23-THIA-4,10,13,19,24-PENTAAZATRICYCLO[19.2.1.3]-6,10-TETRACOSA-1(2H), 21-DIEN-3-YL)PROPYL]GUANIDINE [Compound 23]", "pKi", 7.18),
]

Now for a further substance.
Exercise: Give the reported pKi for this substance. 6R, 19S, 22S-N-[3-(6-BENZYL-5, 8, 17, 18, 21-PENTAOXODOCOSAHYDRO-4a, 7, 16, 20-TETRAAZABENCBZOCYCLONONADECEN-19-YL) PROPYL] GUANIDINE TRIFLUOROACETIC ACID HYDRATE [Compound 5]
Solution: 7.07
